meta.source: paper PMC9911399

Target: T1, RBFOX1 RRM RbFoxmut (Fox-RRM*) (Homo sapiens, UniProt Q9NWB1 109-208, R118D;E147R;N151S;E152T)
T1 sequence: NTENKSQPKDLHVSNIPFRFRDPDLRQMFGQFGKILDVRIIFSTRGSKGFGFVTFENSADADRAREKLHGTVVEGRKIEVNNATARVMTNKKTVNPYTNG
Assay: EMSA; HiTS-Eq, 1 nM pool, 10 min; buffer printed only for the single-RNA assays: 10 mM Tris pH 7.5, 150 mM NaCl, 3.4 mM EDTA, 0.001% NP-40, 30 C
Conditions: tags: His6 N-terminal (pET28a); label: 5' 32P
Over roughly 16,000 sequences, “ka relative to ugcaugu” has its median near 0.096; the highest 2% begin near 0.35. The entries come from a sample that favours the highest values as a whole.
ENDPOINT: binding signal

>>> measured_value("AGCCGCU (DNA:RNA) RNA: GGGAGACCGGAAUUCAGAUUGUCCAGCCGCUUUAAAUCCCGUCGUAGCCACCA DNA 1: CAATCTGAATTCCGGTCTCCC DNA 2: TGGTGGCTACGACGGGATT")
"0.0799 KA relative to UGCAUGU"

From here, focus on the item given below.
Request: Please look up its binding signal: GGCAGCU (DNA:RNA) RNA: GGGAGACCGGAAUUCAGAUUGUCCGGCAGCUUUAAAUCCCGUCGUAGCCACCA DNA 1: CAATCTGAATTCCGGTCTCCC DNA 2: TGGTGGCTACGACGGGATT
Result: 0.0642 KA relative to UGCAUGU
